System: HCC 2998
Assay: NCI tumour cell line growth inhibition, 48 h
Active and inactive are the calls of the source. Cut-off read from the data, not from the text of the source: active = GI50 up to about 1.1 µM and inactive = higher.
The reply should name one outcome from y = active, n = inactive

Challenge: For this compound, state the assay outcome: N#CC(C(=N/NC(N)=S)/C(=N/NC(N)=S)C(C#N)c1ccc(Cl)cc1)c1ccc(Cl)cc1 (stereo not given)
Response given: n

Challenge: Okay, and CC(C)NC(=O)OCc1c(COC(=O)NC(C)C)c(-c2ccc[n+](COC(=O)CC(C)(C)C)c2)n2c1CCC2 ?
Response given: n

Challenge: Okay, and O=C(O)Cc1cccc2c(=O)c3ccccc3oc12 ?
Response given: n

Challenge: Okay, and N#Cc1ccc(C2ON=C(c3ccccc3)N2C23CC4CC(CC(C4)C2)C3)cc1 (stereo not given) ?
Response given: n

Challenge: Okay, and O=C1CCC(CCc2nc3ccccc3[nH]2)(c2ccccc2)C(=O)N1 (stereo not given) ?
Response given: n

====

// reported GI50 per item
System: TK-10
Assay: NCI tumour cell line growth inhibition, 48 h
Active and inactive are the calls of the source. Rule as the data show it: active = GI50 up to about 1.1 µM and inactive = higher.

// below: answered molecules
[
  {
    "molecule": "CC(=O)OCC1OC(N2C(C)=C(C(C)=O)C(c3ccco3)C(C#N)=C2S)C(OC(C)=O)C(OC(C)=O)C1OC(C)=O (stereo not drawn)",
    "GI50": "> 100 µM (inactive)"
  },
  {
    "molecule": "Nc1ncc(Cc2nn3c(COc4ccc(Cl)cc4)nnc3s2)s1",
    "GI50": "45.2 µM (inactive)"
  },
  {
    "molecule": "CC(=O)OC1COC(n2c(N)c(C#N)c(-c3ccccc3)c(C#N)c2=S)C(OC(C)=O)C1OC(C)=O (stereo not drawn)",
    "GI50": "30.2 µM (inactive)"
  },
  {
    "molecule": "COc1ccc(/C=N/n2cnc3c(sc(=S)n3-c3ccccc3)c2=O)cc1",
    "GI50": "25.3 µM (inactive)"
  },
  {
    "molecule": "COc1cc([C@@H]2c3cc4c(cc3[C@@H](Nc3ccc([N+](=O)[O-])cc3C(=O)c3ccccc3)[C@H]3COC(=O)[C@H]23)OCO4)cc(OC)c1OC",
    "GI50": "> 100 µM (inactive)"
  },
  {
    "molecule": "CC(=O)Oc1ccc(-c2c(OC(C)=O)c(OC(C)=O)c(-c3ccc(OC(C)=O)c(OC(C)=O)c3)c(OC(C)=O)c2OC(C)=O)cc1",
    "GI50": "15.9 µM (inactive)"
  },
  {
    "molecule": "O=C1C=CC(=O)C(CNc2ccc(C(=O)OCc3ccccc3)cc2)=C1",
    "GI50": "4.62 µM (inactive)"
  }
]

# next molecule below
Challenge: Need GI50, item CC(C)(C)c1cc([N+](=O)[O-])cc([N+](=O)[O-])c1O
Response given: > 10 µM (inactive)

====

Test system: MOLT-4
Assay: NCI tumour cell line growth inhibition, 48 h
Structures can show the parent of a compound that is named as a salt. Calls of active or inactive are those of the source. No stated cut-off is given here; in the data, active = GI50 up to about 1.1 µM and inactive = higher.
// reported GI50 per item

[
  {
    "molecule": "Nc1nc(N)c2nc(CNc3ccc(C(=O)NC(CCCCNC(=O)c4ccccc4C(=O)O)C(=O)O)cc3)cnc2n1 (configuration not stated)",
    "GI50": "0.01 µM (active)"
  },
  {
    "molecule": "CO/N=C1\\CC(NC(=O)C(F)(F)F)c2ccsc21 (configuration not stated)",
    "GI50": "> 100 µM (inactive)"
  },
  {
    "molecule": "COc1ccc(C(C#N)NC23CC4CC(CC(C4)C2)C3)cc1OC (configuration not stated)",
    "GI50": "> 100 µM (inactive)"
  },
  {
    "molecule": "Brc1ccc2[nH]c3c(C4=NCCC4)nccc3c2c1",
    "GI50": "8.45 µM (inactive)"
  }
]

Challenge: Need GI50, item O=NC1c2cccc3cccc(c23)C1N=O (configuration not stated)
Response given: 0.612 µM (active)

Challenge: Okay, and CC[N+](C)(CC)CC(C)(C)C(=O)/C=C/c1ccc(/C=C/C(=O)C(C)(C)C[N+](C)(CC)CC)cc1 ?
Response given: > 100 µM (inactive)

Challenge: Okay, and CC1(C)OC2OC(/C=C/[N+](=O)[O-])C3OC(C)(C)OC3C2O1 (configuration not stated) ?
Response given: 3.01 µM (inactive)

Challenge: Okay, and Nc1ccc(CCN2CCN(CCCc3ccccc3)CC2)cc1 ?
Response given: 50.4 µM (inactive)

Challenge: Okay, and COc1ccc(N(CC(=O)O)N=O)cc1 ?
Response given: > 100 µM (inactive)

Challenge: Okay, and OC(CNc1ccccn1)c1ccccc1 (configuration not stated) [PHENYRAMIDOL HYDROCHLORIDE] ?
Response given: > 100 µM (inactive)

Challenge: Okay, and O=C1C(Cl)=C(NCCc2ccc(O)cc2)C(=O)c2c(O)ccc(O)c21 ?
Response given: > 10 µM (inactive)

====

System: HL-60
Test: NCI tumour cell line growth inhibition, 48 h
The source made the active and inactive calls. Cut-off read from the data, not from the text of the source: active = GI50 up to about 1.1 µM and inactive = higher.
measure: GI50

[
  {
    "compound": "COc1ccc2[nH]c3c4c(cc(-c5ccccc5)c3c2c1)C(=O)N(c1ccccc1)C4=O",
    "measure": "GI50",
    "recordedValue": "38.5 µM (inactive)"
  },
  {
    "compound": "N=C1OC(c2c[nH]c3ccc(OCc4ccccc4)cc23)C(O)=C1O (centres undefined)",
    "measure": "GI50",
    "recordedValue": "71.1 µM (inactive)"
  },
  {
    "compound": "COc1ccc(/C=C2\\OC(=O)C(Cl)=C2c2ccc(OC)c(Cl)c2)cc1",
    "measure": "GI50",
    "recordedValue": "47.1 µM (inactive)"
  }
]

# next compound below
Challenge: Need GI50, item Cc1ccc(S(=O)(=O)N/N=C/C(Br)=C(/Br)C(=O)O)cc1
Response given: 1.93 µM (inactive)

====

System: PC-3
Assay: NCI tumour cell line growth inhibition, 48 h
Activity calls are given as the source filed them. No stated cut-off is given here; in the data, active = GI50 up to about 1.1 µM and inactive = higher.
measure: GI50

// below: answered compounds
[
  {
    "compound": "O=C(/C=C/c1ccccc1)CCN1CCN(CCC(=O)/C=C/c2ccccc2)CC1",
    "measure": "GI50",
    "recordedValue": "16.8 µM (inactive)"
  },
  {
    "compound": "CC(C)CCC[C@@H](C)C1CCC2[C@@H]3CCC4CC(CCC=C(c5cc(Cl)c(OC(=O)c6ccccc6)c(C(=O)O)c5)c5cc(Cl)c(OC(=O)c6ccccc6)c(C(=O)O)c5)CC[C@]4(C)C3CC[C@@]21C (stereo partly drawn)",
    "measure": "GI50",
    "recordedValue": "> 100 µM (inactive)"
  },
  {
    "compound": "Cn1cnc([N+](=O)[O-])c1Sc1nncc2[nH]cnc12",
    "measure": "GI50",
    "recordedValue": "> 100 µM (inactive)"
  },
  {
    "compound": "O=C1C=CC(=O)C(CNc2ccc(C(=O)OCc3ccccc3)cc2)=C1",
    "measure": "GI50",
    "recordedValue": "3.36 µM (inactive)"
  },
  {
    "compound": "Cn1c(=O)c2[nH]c(C3CC(=O)CC(c4nc5c([nH]4)c(=O)n(C)c(=O)n5C)N3)nc2n(C)c1=O (stereo not drawn)",
    "measure": "GI50",
    "recordedValue": "> 100 µM (inactive)"
  }
]

Challenge: Need GI50, item Cc1cccc(NC(=O)c2cccc([N+](=O)[O-])c2O)c1C
Response given: 20.2 µM (inactive)

Challenge: Okay, and CC(C)CCC[C@@H](C)[C@H]1CC[C@H]2[C@@H]3CC=C4C[C@@H](OC(=O)c5cccc6c(=O)c7ccccc7[nH]c56)CC[C@]4(C)[C@H]3CC[C@]12C ?
Response given: > 75 µM (inactive)

Challenge: Okay, and Nc1c2c(nc3ccccc13)CCCc1ccccc1-2 ?
Response given: 14.3 µM (inactive)

====

System: SF-268
Assay: NCI tumour cell line growth inhibition, 48 h
Calls of active or inactive are those of the source. Cut-off read from the data, not from the text of the source: active = GI50 up to about 1.1 µM and inactive = higher.
measure: GI50

Challenge: Please tell me: GI50 of Cc1cccc(NC(=O)c2cccc([N+](=O)[O-])c2O)c1C , system SF-268?
Response given: 33.2 µM (inactive)

Challenge: Okay, and CCN(CC)C(=O)CCn1cc(F)c(=O)[nH]c1=O ?
Response given: > 100 µM (inactive)

Challenge: Okay, and Cn1c(=O)c2[nH]c(C3CC(=O)CC(c4nc5c([nH]4)c(=O)n(C)c(=O)n5C)N3)nc2n(C)c1=O (stereo not given) ?
Response given: > 100 µM (inactive)

Challenge: Okay, and COc1ccc(Nc2nc3c(N)cc(C(F)(F)F)cc3nc2-c2ccccc2)cc1OC ?
Response given: 16.5 µM (inactive)
